target: Thromboxane A2 receptor (Homo sapiens) (UniProt P21731); test: Competition factor for Thromboxane A2 receptor binding affinity CF = (IC50-test)/(IC50-standard)
Sequence (P21731 whole entry): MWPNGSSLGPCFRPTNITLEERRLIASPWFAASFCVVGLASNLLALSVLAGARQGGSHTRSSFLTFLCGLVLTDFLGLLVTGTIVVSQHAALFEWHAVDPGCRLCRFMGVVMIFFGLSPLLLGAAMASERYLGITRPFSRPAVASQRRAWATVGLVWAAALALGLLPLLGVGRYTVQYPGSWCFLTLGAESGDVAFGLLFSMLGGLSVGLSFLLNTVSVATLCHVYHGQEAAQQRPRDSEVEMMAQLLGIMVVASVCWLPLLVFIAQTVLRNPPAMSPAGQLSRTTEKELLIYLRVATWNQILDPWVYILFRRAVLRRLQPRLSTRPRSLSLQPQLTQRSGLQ
quantity_name: CF

INSERT INTO assay_data (structure_smiles_string, study_target, qualifying_sign, readout_number) VALUES
  ('Cc1ccc(S(=O)(=O)N[C@H]2CCC(=O)[C@@H]2C/C=C\CCCC(=O)O)cc1', 'Thromboxane A2 receptor (Homo sapiens) (UniProt P21731)', '=', 6.5),
  ('C[C@@H]1CC/C(=N\OC(c2ccccc2)c2ccccc2)[C@H]1C/C=C\CCCC(=O)O', 'Thromboxane A2 receptor (Homo sapiens) (UniProt P21731)', '=', 175),
  ('O=C(O)CCC/C=C\C[C@H]1/C(=N/OCC2CCCCC2)CC[C@@H]1NS(=O)(=O)c1ccc(F)cc1', 'Thromboxane A2 receptor (Homo sapiens) (UniProt P21731)', '=', 0.5),
  ('O=C(O)CCC/C=C\C[C@H]1/C(=N/OCc2ccc(C(F)(F)F)cc2)CC[C@@H]1NS(=O)(=O)c1ccc(Cl)cc1', 'Thromboxane A2 receptor (Homo sapiens) (UniProt P21731)', '=', 0.07),
  ('O=C(O)CCC/C=C\C[C@H]1C(=O)CC[C@@H]1NS(=O)(=O)c1ccc(Cl)cc1', 'Thromboxane A2 receptor (Homo sapiens) (UniProt P21731)', '=', 2.6),
  ('O=C(O)CCC/C=C\C[C@@H]1[C@H](O)CC[C@H]1NS(=O)(=O)c1ccc(Cl)cc1', 'Thromboxane A2 receptor (Homo sapiens) (UniProt P21731)', '=', 85),
  ('O=C(O)CCC/C=C\C[C@H]1/C(=N/OC(c2ccccc2)c2ccccc2)CC[C@@H]1NS(=O)(=O)c1ccc(F)cc1', 'Thromboxane A2 receptor (Homo sapiens) (UniProt P21731)', '=', 6.9),
  ('Cc1ccc(S(=O)(=O)N[C@@H]2CC[C@@H](O)[C@H]2C/C=C\CCCC(=O)O)cc1', 'Thromboxane A2 receptor (Homo sapiens) (UniProt P21731)', '=', 340),
  ('O=C(O)CCC/C=C\C[C@@H]1[C@@H](NS(=O)(=O)c2ccc(Cl)cc2)CC[C@@H]1O', 'Thromboxane A2 receptor (Homo sapiens) (UniProt P21731)', '=', 0.68),
  ('O=C(O)CCC/C=C\C[C@H]1C(=O)CC[C@@H]1NS(=O)(=O)c1ccc(F)cc1', 'Thromboxane A2 receptor (Homo sapiens) (UniProt P21731)', '=', 6.4),
  ('Cc1ccc(S(=O)(=O)N[C@H]2CC/C(=N\OC(c3ccccc3)c3ccccc3)[C@@H]2C/C=C\CCCC(=O)O)cc1', 'Thromboxane A2 receptor (Homo sapiens) (UniProt P21731)', '=', 4.5),
  ('O=C(O)CCC/C=C\C[C@@H]1[C@@H](NS(=O)(=O)c2ccc(F)cc2)CC[C@@H]1O', 'Thromboxane A2 receptor (Homo sapiens) (UniProt P21731)', '=', 2.1),
  ('O=C(O)CCC/C=C\C[C@@H]1[C@H](O)CC[C@H]1NS(=O)(=O)c1ccc(F)cc1', 'Thromboxane A2 receptor (Homo sapiens) (UniProt P21731)', '=', 26),
  ('O=C(O)CC/C=C\C[C@@H]1[C@@H](NS(=O)(=O)c2ccc(F)cc2)CC[C@@H]1O', 'Thromboxane A2 receptor (Homo sapiens) (UniProt P21731)', '=', 200),
  ('Cc1ccc(S(=O)(=O)N[C@H]2CC[C@H](O)[C@@H]2C/C=C\CCC(=O)O)cc1', 'Thromboxane A2 receptor (Homo sapiens) (UniProt P21731)', '=', 135),
  ('Cc1ccc(S(=O)(=O)N[C@H]2CC/C(=N\OCc3ccc(C(F)(F)F)cc3)[C@@H]2C/C=C\CCCC(=O)O)cc1', 'Thromboxane A2 receptor (Homo sapiens) (UniProt P21731)', '<', 1),
  ('O=C(O)CCC/C=C\C[C@H]1/C(=N/OC(c2ccccc2)c2ccccc2)CC[C@@H]1NS(=O)(=O)c1ccc(Cl)cc1', 'Thromboxane A2 receptor (Homo sapiens) (UniProt P21731)', '=', 4);
